Tested on: F380Y/beta4
Test: modulators of BK channel variants, profiling panel, selectivity assay, cell-based, U2OS BacMam, thallium flux, beta subunits (AID 1259406);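 note: initial slope of Thallos dye fluorescence rise after thallium is added; log ratio against the mean of 0.3% DMSO vehicle wells on the same plate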
Conditions: at 30 µM
Calls of active or inactive are those of the source.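 Rule for the calls: active = thallium flux through the channel raised or lowered by more than 3 SD from vehicle-only wells, actives on both sides; inactive = the rest.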

| INPUT_SMILES | log fold change Tl+ flux |
| --- | --- |
| O=C(NNc1c(Cl)cccc1Cl)c1csc(Cc2c(Cl)cccc2Cl)n1 | -0.048 (inactive) |
| COc1cc(C)c(/C=C/C(C)=C/C=C/C(C)=C/C(=O)O)c(C)c1C | 0.0442 (inactive) |
| Cc1onc(-c2ccccc2)c1N1C(=O)CCN(C(C)C)C1=O | -0.00603 (inactive) |
| N#CC(CCC(=O)O)(CCC(=O)O)S(=O)(=O)c1ccccc1 | -0.00447 (inactive) |
| CCc1[nH]c(=S)[nH]c(=O)c1C#N | 0.0765 (inactive) |
| CC(=O)[C@@]1(O)CC[C@H]2[C@@H]3C[C@H](C)C4=CC(=O)CC[C@]4(C)[C@H]3CC[C@@]21C | -0.018 (inactive) |
| Cc1nn(Cc2nnn(CC(=O)NN=Cc3ccc(Cl)cc3)n2)c(C)c1Br | -0.0438 (inactive) |
| COC(=O)c1ccc(C=Cc2cccc(Cl)c2)s1 | -0.264 (active) |
| O=C1CN2Cc3c(ccc(Cl)c3Cl)N=C2N1 | 0.00749 (inactive) |
| Nc1nc(Cl)nc2c1ncn2[C@H]1C[C@H](O)[C@@H](CO)O1 | -0.0201 (inactive) |
| O=C(Cn1ccc(C(F)(F)F)n1)c1ccc(Cl)cc1 | 0.0229 (inactive) |
